I'd appreciate it if you could supply inhibition values for the items below.
biological target: P2X7 receptor (Homo sapiens); construct: host or cells: THP-1 cells differentiated with LPS and IFN-γ; assay: IL-1β release assay in differentiated THP-1 cells stimulated with BzATP (Example 9); type: cell-based; parameters: dose or concentration left out as unconfirmed; settings: THP-1; read-out: IL-1β % Inhib.

Exercise: Provide value of inhibition for this record tested with P2X7 receptor (Homo sapiens): COCCn1ccc2c(NC(=O)C(C)c3ccccc3)cccc2c1=O (stereo not shown) [Compound 1431]
Solution: 0 to 25%

Exercise: Provide value of inhibition for this record tested with P2X7 receptor (Homo sapiens): Cc1ccc(CCC(=O)Nc2cccc3c(=O)n(CCCN4CCCC4=O)ccc23)c(C)c1 [Compound 1546]
Solution: 0 to 25%

Exercise: Provide value of inhibition for this record tested with P2X7 receptor (Homo sapiens): CC(C)(C)Cn1ccc2c(NC(=O)CCc3ccc(Cl)cc3)cccc2c1=O [Compound 1417]
Solution: 26 to 50%

Exercise: Provide value of inhibition for this record tested with P2X7 receptor (Homo sapiens): C[C@H]1CC[C@H](C(=O)Nc2cccc3c(=O)n(CCCN4CCCC4=O)ccc23)CC1 [Compound 1494]
Solution: 0 to 25%

###

target: P2X7 receptor (Homo sapiens); construct: host or cells: THP-1 cells differentiated with LPS and IFN-γ; assay: IL-1β release assay in differentiated THP-1 cells stimulated with BzATP (Example 9); format: cell-based; conditions: 0.1 μM compound; differentiated THP-1 cells, BzATP 250 uM; "*" class symbols; read-out: IL-1β % Inhib. ("*" symbols: at 0.1 μM)
Observation Type: inhibition at 0.1 µM

Exercise: Recorded inhibition at 0.1 µM of Cc1cccc(C(=O)Nc2cccc3c(=O)n(Cc4ccc(OC(F)(F)F)cc4)ccc23)c1Cl [Compound 1607] , please.
Solution: 0 to 25%

Exercise: Recorded inhibition at 0.1 µM of CCOc1ccccc1CC(=O)Nc1cccc2c(=O)n(Cc3ccc(OC(F)(F)F)cc3)ccc12 [Compound 1604] , please.
Solution: 0 to 25%

Exercise: Recorded inhibition at 0.1 µM of Cc1cccc(CCC(=O)Nc2cccc3c(=O)n(Cc4ccc(OC(F)(F)F)cc4)ccc23)c1 [Compound 1606] , please.
Solution: 0 to 25%

###

Target: P2X7 receptor (Homo sapiens, UniProt Q99572)
Construct: host or cells: THP-1 cells differentiated with LPS and IFN-γ
Sequence (Q99572 1-595): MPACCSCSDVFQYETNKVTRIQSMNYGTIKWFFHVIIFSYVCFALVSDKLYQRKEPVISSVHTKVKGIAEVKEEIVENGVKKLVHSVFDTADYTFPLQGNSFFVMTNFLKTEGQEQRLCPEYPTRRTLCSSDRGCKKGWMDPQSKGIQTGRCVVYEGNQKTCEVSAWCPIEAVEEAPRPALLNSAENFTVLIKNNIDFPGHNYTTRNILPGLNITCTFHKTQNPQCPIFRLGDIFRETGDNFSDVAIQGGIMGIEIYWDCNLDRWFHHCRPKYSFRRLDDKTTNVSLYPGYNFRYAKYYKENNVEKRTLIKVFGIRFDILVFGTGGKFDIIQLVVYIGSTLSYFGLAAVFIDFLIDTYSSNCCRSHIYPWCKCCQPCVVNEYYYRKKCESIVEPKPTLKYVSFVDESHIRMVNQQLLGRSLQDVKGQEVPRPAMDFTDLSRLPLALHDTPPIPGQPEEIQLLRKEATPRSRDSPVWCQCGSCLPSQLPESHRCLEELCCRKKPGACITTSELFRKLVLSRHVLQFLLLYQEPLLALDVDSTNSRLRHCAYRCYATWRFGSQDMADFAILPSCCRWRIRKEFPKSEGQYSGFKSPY
Test: IL-1β release assay in differentiated THP-1 cells stimulated with BzATP (Example 9)
Format: cell-based
Settings: 0.3 μM compound; differentiated THP-1 cells, BzATP 250 uM; symbols + to ++++; read-out: IL-1β % Inhib. @ 0.3 μM
Observation Type: inhibition at 0.3 µM

Exercise: Provide value of inhibition at 0.3 µM for this record tested with P2X7 receptor (Homo sapiens, UniProt Q99572): O=C(Cc1csc2ccccc12)Nc1cccc2c(=O)n(CCN3CCOCC3)ccc12
Solution: 0 to 25%

Exercise: Provide value of inhibition at 0.3 µM for this record tested with P2X7 receptor (Homo sapiens, UniProt Q99572): CC(=O)OCCn1ccc2c(NC(=O)Cc3cc(C(F)(F)F)cc(C(F)(F)F)c3)cccc2c1=O
Solution: 51 to 75%

Exercise: Provide value of inhibition at 0.3 µM for this record tested with P2X7 receptor (Homo sapiens, UniProt Q99572): O=C(Nc1cccc2c(=O)n(Cc3cccnc3)ccc12)[C@@]12C[C@@H]3C[C@@H](C[C@@H]1C3)C2
Solution: 0 to 25%

Exercise: Provide value of inhibition at 0.3 µM for this record tested with P2X7 receptor (Homo sapiens, UniProt Q99572): CN(C)CCn1ccc2c(NC(=O)CC3CCCCCC3)cccc2c1=O
Solution: 26 to 50%

Exercise: Provide value of inhibition at 0.3 µM for this record tested with P2X7 receptor (Homo sapiens, UniProt Q99572): COc1ccc(C(=O)Nc2cccc3c(=O)n(Cc4cccnc4)ccc23)cc1C
Solution: 0 to 25%

Exercise: Provide value of inhibition at 0.3 µM for this record tested with P2X7 receptor (Homo sapiens, UniProt Q99572): COCCn1ccc2c(NC(=O)CCc3ccc(C)cc3C)cccc2c1=O
Solution: 0 to 25%

Exercise: Provide value of inhibition at 0.3 µM for this record tested with P2X7 receptor (Homo sapiens, UniProt Q99572): O=C(CCc1ccc(Cl)cc1)Nc1cccc2c(=O)n(CCN3CCOCC3)ccc12
Solution: 0 to 25%

Exercise: Provide value of inhibition at 0.3 µM for this record tested with P2X7 receptor (Homo sapiens, UniProt Q99572): Cc1ccc(CCC(=O)Nc2cccc3c(=O)n(CC(C)(C)C)ccc23)c(C)c1
Solution: 0 to 25%

Exercise: Provide value of inhibition at 0.3 µM for this record tested with P2X7 receptor (Homo sapiens, UniProt Q99572): O=C(Cc1ccccc1Cl)Nc1cccc2c(=O)n(CCN3CCOCC3)ccc12
Solution: 0 to 25%
